// reported Ki per item
- MEASURED_ON: full-length hepatitis C viral protein NS3•4A (Hepatitis C virus genotype 1a, UniProt P27958)
- Construct: hexa-histidine (N); made in house; host or cells: Sf9 insect cells (baculovirus, pVL1392)
- PROTOCOL_TEXT: biochemical
- Design: species or system HCV sub-type strain 1a
- TEST_PARAMETERS: Enzyme Assay 2 (HCV NS3 Peptide Cleavage Assay) activity, apparent Ki class

- COMPOUND: "CCC[C@H](NC(=O)[C@@H]1C[C@]2(CC(c3cccc(Cl)c3)=NO2)CN1C(=O)[C@H](Cc1ccccc1F)NC(=O)CC1CCCCC1)C(=O)C(=O)NC1CC1"
  Ki: "100 to 500 nM"
- COMPOUND: "CC(C)(C)[C@H](NC(=O)CC1CC2CCC1C2)C(=O)N1C[C@@]2(CC(c3cccc(Cl)c3)=NO2)C[C@H]1C(=O)N[C@@H](CC1CC1)C(=O)C(N)=O (stereo partly drawn)"
  Ki: "< 100 nM"
- COMPOUND: "CCC[C@H](NC(=O)[C@@H]1C[C@]2(CC(c3cccc(Cl)c3)=NO2)CN1C(=O)[C@@H](NC(=O)CC1CCCCC1)C(C)(C)C)C(=O)C(=O)NCCc1ccc2c(c1)OCO2"
  Ki: "100 to 500 nM"
